Each recorded value in this set is attributed to patent US9353090B2.

experiment: physchem; conditions: pH 4.5, aqueous buffer, kinetic from dmso stock, Solubility (pH 4.5)
Recorded measurements of solubility at 24 h, one per entry
measured-metric: solubility at 24 h (mg/mL)

[[record]]
compound = "CO[C@H]1CN(c2nc(-c3cccc(C)c3OCc3ccc4c(c3C)CCN(C3COC3)C4)cs2)CC[C@H]1C(=O)O"
measured_metric = "solubility at 24 h"
value_observed = 0.074

[[record]]
compound = "Cc1cccc(-c2csc(N3CC[C@@]4(C(=O)O)C[C@H]4C3)n2)c1OCc1ccc2c(c1)CCN(C1COC1)C2"
measured_metric = "solubility at 24 h"
value_observed = 0.052

[[record]]
compound = "COC[C@H]1N(c2cccc(-c3cccc(C)c3OCc3ccc4c(c3)CCN(C3COC3)C4)n2)C[C@@H]2C[C@@]21C(=O)O"
measured_metric = "solubility at 24 h"
value_observed = 0.12

[[record]]
compound = "CO[C@H]1CN(c2nc(-c3cccc(C)c3OCc3ccc4c(c3)[C@H](C)CN(C3CCOCC3)CC4)cs2)CC[C@H]1C(=O)O"
measured_metric = "solubility at 24 h"
value_observed = 0.137

[[record]]
compound = "CCO[C@@H]1CN(c2nc(-c3cc(C)ccc3OCc3cc(OC)c4c(c3F)CCN(C3CCOCC3)C4)cs2)CC[C@@H]1C(=O)O"
measured_metric = "solubility at 24 h"
value_observed = 0.0541

[[record]]
compound = "CO[C@H]1CN(c2cccc(-c3cccc(Cl)c3OCc3cc(C)c4c(c3)CCN(C3CCOCC3)C4)n2)CC[C@H]1C(=O)O"
measured_metric = "solubility at 24 h"
value_observed = 0.0822

[[record]]
compound = "Cc1ccc(OCc2ccc3c(c2C)CCN(C2COC2)C3)c(-c2csc(N3CC[C@@]4(C(=O)O)C[C@H]4C3)n2)c1"
measured_metric = "solubility at 24 h"
value_observed = 0.011

[[record]]
compound = "Cc1ccc(OCc2ccc3c(c2C)CCN(C2CCOCC2)C3)c(-c2csc(N3C[C@@H]4C[C@]4(C(=O)O)[C@H]3C)n2)c1"
measured_metric = "solubility at 24 h"
value_observed = 0.065

[[record]]
compound = "Cc1cccc(-c2cccc(N3CC[C@@]4(C(=O)O)C[C@H]4C3)n2)c1OCc1ccc2c(c1C)CCN(C1CCOCC1)C2"
measured_metric = "solubility at 24 h"
value_observed = 0.094

[[record]]
compound = "Cc1cc(COc2c(C)cccc2-c2csc(N3CC[C@@]4(C(=O)O)C[C@H]4C3)n2)cc2c1CN(CC1COCCO1)CC2 (stereo partly shown)"
measured_metric = "solubility at 24 h"
value_observed = 0.068

[[record]]
compound = "Cc1cccc(-c2cccc(N3CC[C@H](C(=O)O)[C@@H]4OCCC[C@H]43)n2)c1OCc1ccc2c(c1C)CCN(C1COC1)CC2"
measured_metric = "solubility at 24 h"
value_observed = 0.0376

[[record]]
compound = "Cc1ccc(OCc2ccc3c(c2)CCCN(C2CCOCC2)C3)c(-c2csc(N3CC[C@@]4(C(=O)O)C[C@H]4C3)n2)c1"
measured_metric = "solubility at 24 h"
value_observed = 0.0516

[[record]]
compound = "CO[C@H]1CN(c2cccc(-c3cc(C)ccc3OCc3ccc4c(c3)CCN(C3CCOCC3)C4)n2)CC[C@H]1C(=O)O"
measured_metric = "solubility at 24 h"
value_observed = 0.12

